Molecular target: HLA-B*27:05
Assay: IEDB peptide-MHC binding, purified MHC/direct/fluorescence; filed as Kd, often an IC50 or EC50 that approximates it; bounds were set here for any values at or beyond the usual limits of such assays
Conditions: source organism: Giardia lamblia ATCC 50803
pKd: −log10 of the molar value.
QUANTITY NAME: pKd

ITFHNQRDF: ≤ 4.70
GMLSSLHTL: 5.57

Shifting focus to the sequence that follows.
pKd recorded for this sequence, ISYTYNDNW , is ≤ 4.70

---

Target: HLA-A*24:02
Assay: IEDB peptide-MHC binding, purified MHC/direct/fluorescence; filed as Kd, often an IC50 or EC50 that approximates it; bounds were set here for any values at or beyond the usual limits of such assays
Conditions: source organism: Influenza A virus (A/chicken/Vietnam/5/2003(H5N1))
QUANTITY NAME: Kd

Kd recorded for this sequence, QTYDWTLNR , is ≥ 20 µM

---

Recorded Kd for the following sequences
Target: HLA-A*29:02
Test: IEDB peptide-MHC binding, purified MHC/competitive/radioactivity; filed as Kd, often an IC50 or EC50 that approximates it; bounds were set here for any values at or beyond the usual limits of such assays
Details: source organism: SARS coronavirus Tor2
Write the number in nM without appending the unit.

Here is how some sequences turned out for Kd.
VWTLMNVITL: 72.1
LIDLQELGKY: 2820
TSNPKTPKY: 549

Query ISMMGFKMNY on HLA-A*29:02; Kd returned: 33.4

Query SSQGSEYDY on HLA-A*29:02; Kd returned: 294

---

Target: HLA-A*03:01
Experiment: IEDB peptide-MHC binding, purified MHC/direct/fluorescence; filed as Kd, often an IC50 or EC50 that approximates it; bounds were set here for any values at or beyond the usual limits of such assays
Conditions: source organism: Influenza A virus (A/Puerto Rico/8/34/Mount Sinai(H1N1))
QUANTITY NAME: Kd (nM)
Write the number in nM without appending the unit.

Kd recorded for this sequence, QTYDWTLNR , is 376

---

Biological target: HLA-A*01:01
Experiment: IEDB peptide-MHC binding, purified MHC/direct/fluorescence; filed as Kd, often an IC50 or EC50 that approximates it; bounds were set here for any values at or beyond the usual limits of such assays
Conditions: source organism: Yersinia pestis
pKd: −log10 of the molar value.
Recorded pKd for the following sequences

Here is how some sequences turned out for pKd.
FLPPQIPVI: ≤ 4.70
FMSLQSGDV: ≤ 4.70

Shifting focus to the sequence that follows.
pKd recorded for this sequence, QLKSRAAVL , is ≤ 4.70

---

Target: HLA-A*02:01
Assay: IEDB peptide-MHC binding, purified MHC/direct/fluorescence; filed as Kd, often an IC50 or EC50 that approximates it; bounds were set here for any values at or beyond the usual limits of such assays
Details: source organism: Burkholderia mallei ATCC 23344
pKd: −log10 of the molar value.
QUANTITY NAME: pKd

pKd recorded for this sequence, MSADNAGAL , is ≤ 4.70

---

Molecular target: HLA-B*39:01
Assay: IEDB peptide-MHC binding, purified MHC/direct/fluorescence; filed as Kd, often an IC50 or EC50 that approximates it; bounds were set here for any values at or beyond the usual limits of such assays
Settings: source organism: Vibrio cholerae V52
pKd: −log10 of the molar value.
QUANTITY NAME: pKd

pKd recorded for this sequence, REVFDYLLP , is ≤ 4.70

---

Molecular target: HLA-B*08:02
Test: IEDB peptide-MHC binding, purified MHC/direct/fluorescence; filed as Kd, often an IC50 or EC50 that approximates it; bounds were set here for any values at or beyond the usual limits of such assays
Conditions: source organism: dengue virus type 4
QUANTITY NAME: Kd

Kd recorded for this sequence, KKKLRPRWL , is ≥ 20 µM

---

Molecular target: HLA-A*01:01
Experiment: IEDB peptide-MHC binding, purified MHC/competitive/fluorescence; filed as Kd, often an IC50 or EC50 that approximates it; bounds were set here for any values at or beyond the usual limits of such assays
Conditions: source organism: Corynebacterium glutamicum R
QUANTITY NAME: Kd (µM)
Write the number in µM without appending the unit.

Kd recorded for this sequence, RYDDGQSIY , is 19.7

---

Molecular target: HLA-A*02:50
Test: IEDB peptide-MHC binding, purified MHC/competitive/fluorescence; filed as Kd, often an IC50 or EC50 that approximates it; bounds were set here for any values at or beyond the usual limits of such assays
Conditions: source organism: Yersinia pestis Nepal516
QUANTITY NAME: pKd
Conceptually, pKd converts a concentration in mol/L into minus its log10.

pKd recorded for this sequence, FMSLQSGDV , is 8.60

---

Molecular target: HLA-A*24:02
Assay: IEDB peptide-MHC binding, purified MHC/competitive/fluorescence; bounds were set here for any values at or beyond the usual limits of such assays
Settings: source organism: Sudan ebolavirus
QUANTITY NAME: IC50 (µM)
Write the number in µM without appending the unit.

VIILFQKAF: 1.61

Shifting focus to the sequence that follows.
IC50 recorded for this sequence, ADIGEWAFW , is 19.4

---

Target: HLA-B*51:01
Assay: IEDB peptide-MHC binding, purified MHC/competitive/fluorescence; filed as Kd, often an IC50 or EC50 that approximates it; bounds were set here for any values at or beyond the usual limits of such assays
Details: source organism: Entamoeba dispar SAW760
QUANTITY NAME: Kd

Kd recorded for this sequence, KGFFRVFKK , is ≥ 20 µM

---

Target: HLA-B*08:02
Test: IEDB peptide-MHC binding, purified MHC/direct/fluorescence; filed as Kd, often an IC50 or EC50 that approximates it; bounds were set here for any values at or beyond the usual limits of such assays
Details: source organism: Yersinia pestis CA88-4125
QUANTITY NAME: Kd (nM)
Write the number in nM without appending the unit.

Kd recorded for this sequence, QLKSRAAVL , is 948

---

Molecular target: HLA-A*02:01
Experiment: IEDB peptide-MHC binding, purified MHC/direct/fluorescence; filed as Kd, often an IC50 or EC50 that approximates it; bounds were set here for any values at or beyond the usual limits of such assays
Conditions: source organism: Escherichia coli
QUANTITY NAME: Kd (µM)
Write the number in µM without appending the unit.

ALMRWRHPR: 9.62

Query GLKRGGVLL on HLA-A*02:01; Kd returned: 2.05

---

Target: HLA-A*33:01
Test: IEDB peptide-MHC binding, purified MHC/competitive/radioactivity; filed as Kd, often an IC50 or EC50 that approximates it; bounds were set here for any values at or beyond the usual limits of such assays
Conditions: source organism: Lassa virus Josiah
pKd: −log10 of the molar value.
QUANTITY NAME: pKd

pKd recorded for this sequence, GVVRVWDVK , is ≤ 4.62

---

Molecular target: HLA-A*26:01
Assay: IEDB peptide-MHC binding, purified MHC/competitive/radioactivity; filed as Kd, often an IC50 or EC50 that approximates it; bounds were set here for any values at or beyond the usual limits of such assays
Details: source organism: Variola virus
pKd: −log10 of the molar value.
QUANTITY NAME: pKd

Query QSDTVFDHY on HLA-A*26:01; pKd returned: ≤ 4.11

---

Biological target: HLA-A*02:01
Experiment: IEDB peptide-MHC binding, purified MHC/direct/fluorescence; filed as Kd, often an IC50 or EC50 that approximates it; bounds were set here for any values at or beyond the usual limits of such assays
Conditions: source organism: Giardia intestinalis
pKd: −log10 of the molar value.
QUANTITY NAME: pKd

Query GPRRAAWRI on HLA-A*02:01; pKd returned: ≤ 4.70

---

Molecular target: HLA-B*51:01
Test: IEDB peptide-MHC binding, purified MHC/competitive/radioactivity; filed as Kd, often an IC50 or EC50 that approximates it; bounds were set here for any values at or beyond the usual limits of such assays
Settings: source organism: Lymphocytic choriomeningitis virus (strain Armstrong)
QUANTITY NAME: Kd (nM)
Write the number in nM without appending the unit.

Kd recorded for this sequence, HPIMYYTKF , is 1600

---

Molecular target: HLA-A*01:01
Assay: IEDB peptide-MHC binding, purified MHC/direct/fluorescence; filed as Kd, often an IC50 or EC50 that approximates it; bounds were set here for any values at or beyond the usual limits of such assays
Conditions: source organism: Coxiella burnetii
QUANTITY NAME: Kd

Kd recorded for this sequence, EEMPLVWDL , is ≥ 20 µM

---

Biological target: HLA-B*08:02
Test: IEDB peptide-MHC binding, purified MHC/direct/fluorescence; filed as Kd, often an IC50 or EC50 that approximates it; bounds were set here for any values at or beyond the usual limits of such assays
Settings: source organism: Influenza A virus(A/swine/Shandong/fNY/2003(H9N2))
QUANTITY NAME: Kd

Kd recorded for this sequence, KTTYWWDGL , is ≥ 20 µM
